FYI, the data here is from patent US20070276011A1.

Overview of recorded Inhibitory Ratio at 25 μM (%) for various compounds
target: recombinant human PAI-1 (Homo sapiens, UniProt P05121); test: PAI-1 inhibitory activity, Test Method A (tPA fluorogenic substrate, Tris buffer pH8.0, 37 C); type: biochemical; conditions: 25 μM test compound; Test Method A
Sequence (P05121 24-402): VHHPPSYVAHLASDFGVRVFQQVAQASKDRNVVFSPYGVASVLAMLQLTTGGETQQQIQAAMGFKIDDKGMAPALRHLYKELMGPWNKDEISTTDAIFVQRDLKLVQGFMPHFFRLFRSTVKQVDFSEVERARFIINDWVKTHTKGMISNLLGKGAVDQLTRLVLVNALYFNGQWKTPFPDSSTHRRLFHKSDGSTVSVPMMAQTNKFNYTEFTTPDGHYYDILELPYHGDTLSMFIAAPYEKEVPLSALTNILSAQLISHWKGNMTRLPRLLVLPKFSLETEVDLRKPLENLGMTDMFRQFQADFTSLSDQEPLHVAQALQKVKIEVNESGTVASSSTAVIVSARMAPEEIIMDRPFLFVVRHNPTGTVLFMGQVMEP
I only need the number, in %, no unit after it.

Below: 2 compounds and their reported Inhibitory Ratio at 25 μM (%).
SMILES_STR: COc1ccc(NC(=O)c2cc(C=C3SC(=O)N(Cc4ccc(Cl)c(Cl)c4)C3=O)ccc2O)cn1
TEST_TARGET: recombinant human PAI-1 (Homo sapiens, UniProt P05121)
UNIT: %
Inhibitory Ratio at 25 μM (%): 97
--
SMILES_STR: CC(C)C1=NN(c2ccc(Cl)c(Cl)c2)C(=O)C1=Cc1cc(O)ccc1O
TEST_TARGET: recombinant human PAI-1 (Homo sapiens, UniProt P05121)
UNIT: %
Inhibitory Ratio at 25 μM (%): 80

Determine its reported Inhibitory Ratio at 25 μM (%): CCOC1=NN(c2ccc([N+](=O)[O-])cc2)C(=O)C1=Cc1cc(C=Cc2ccccc2)ccc1OC
66

Determine its reported Inhibitory Ratio at 25 μM (%): COCC1=NN(c2cc(Cl)cc(Cl)c2)C(=O)C1=Cc1ccc(Oc2ccccc2)cc1
59

Determine its reported Inhibitory Ratio at 25 μM (%): COc1cc(C=C2SC(=O)N(Cc3ccc(Cl)c(Cl)c3)C2=O)cc(OC)c1OC
44

Determine its reported Inhibitory Ratio at 25 μM (%): CC(C)C1=NN(c2ccc(Cl)c(Cl)c2)C(=O)C1=Cc1cc(C=Cc2ccc(Oc3ccccc3)cc2)ccc1O
76

Determine its reported Inhibitory Ratio at 25 μM (%): O=C(Nc1ccc(O)c(O)c1)c1cc(C=C2SC(=O)N(Cc3ccc(Cl)c(Cl)c3)C2=O)ccc1O
66

Determine its reported Inhibitory Ratio at 25 μM (%): COc1ccc(NC(=O)c2cc(C=C3SC(=O)N(Cc4ccc([N+](=O)[O-])cc4)C3=O)ccc2O)cc1OC
84

Determine its reported Inhibitory Ratio at 25 μM (%): O=C1C(=Cc2cc(Br)ccc2O)C(c2ccc(O)cc2)=NN1c1cc(Cl)cc(Cl)c1
86

Determine its reported Inhibitory Ratio at 25 μM (%): COc1ccc(NC(=O)c2cc(C=C3SC(=O)N(Cc4cc(Cl)cc(Cl)c4)C3=O)ccc2O)cc1OC
88

Determine its reported Inhibitory Ratio at 25 μM (%): COc1ccc(C=C2SC(=O)N(Cc3ccc(Cl)c(Cl)c3)C2=O)cc1C(F)(F)F
73

Determine its reported Inhibitory Ratio at 25 μM (%): O=C(Nc1cc([N+](=O)[O-])ccc1Cl)c1cc(C=C2SC(=O)N(Cc3ccc(Cl)c(Cl)c3)C2=O)ccc1O
70

Determine its reported Inhibitory Ratio at 25 μM (%): COC(=O)c1c(O)cc(C=C2SC(=O)N(Cc3ccc(Cl)cc3Cl)C2=O)cc1O
37

====

Overview of recorded Inhibitory Ratio at 25 μM (%) for various compounds
target: recombinant human PAI-1 (Homo sapiens, UniProt P05121); assay: PAI-1 inhibitory activity, Test Method A (tPA fluorogenic substrate, Tris buffer pH8.0, 37 C); type: biochemical; settings: 25 μM test compound; Test Method A
I only need the number, in %, no unit after it.

Below: 5 compounds and their reported Inhibitory Ratio at 25 μM (%).
SMILES_STR: COc1ccc(O)c(C=C2C(=O)N(c3ccc(Cl)c(Cl)c3)N=C2C(C)C)c1
TEST_TARGET: recombinant human PAI-1 (Homo sapiens, UniProt P05121)
UNIT: %
Inhibitory Ratio at 25 μM (%): 83
//
SMILES_STR: O=C1SC(=Cc2cn(Cc3ccc(OCc4ccccc4)c(OCc4ccccc4)c3)c3ccccc23)C(=O)N1Cc1ccc(Cl)c(Cl)c1
TEST_TARGET: recombinant human PAI-1 (Homo sapiens, UniProt P05121)
UNIT: %
Inhibitory Ratio at 25 μM (%): 95
//
SMILES_STR: O=C(Nc1cc(C(F)(F)F)ccc1F)c1cc(C=C2SC(=O)N(Cc3ccc(Cl)c(Cl)c3)C2=O)ccc1O
TEST_TARGET: recombinant human PAI-1 (Homo sapiens, UniProt P05121)
UNIT: %
Inhibitory Ratio at 25 μM (%): 58
//
SMILES_STR: CCOC1=NN(c2ccc([N+](=O)[O-])cc2)C(=O)C1=Cc1cc(O)c(O)cc1Br
TEST_TARGET: recombinant human PAI-1 (Homo sapiens, UniProt P05121)
UNIT: %
Inhibitory Ratio at 25 μM (%): 82
//
SMILES_STR: O=C1SC(=Cc2ccc3c(c2)OCO3)C(=O)N1Cc1ccc(Cl)cc1Cl
TEST_TARGET: recombinant human PAI-1 (Homo sapiens, UniProt P05121)
UNIT: %
Inhibitory Ratio at 25 μM (%): 61

Determine its reported Inhibitory Ratio at 25 μM (%): CCOC(=O)Oc1ccc(C=C2SC(=O)N(Cc3ccc(Cl)cc3Cl)C2=O)cc1OC(=O)OCC
43

Determine its reported Inhibitory Ratio at 25 μM (%): COc1cc(C=C2SC(=O)N(Cc3ccc(Cl)c(Cl)c3)C2=O)ccc1Cl
61

====

molecular target: recombinant human PAI-1 (Homo sapiens); experiment: PAI-1 inhibitory activity, Test Method A (tPA fluorogenic substrate, Tris buffer pH8.0, 37 C); type: biochemical; conditions: test compound 25 μM; Test Method A
MEASUREMENT_NAME: Inhibitory Ratio at 25 μM (%)
I only need the number, in %, no unit after it.

MOLECULE: O=C1C(=Cc2ccc(Br)o2)C(C(F)(F)F)=NN1c1cccc([N+](=O)[O-])c1 [compound 195]
Inhibitory Ratio at 25 μM (%): 30

Determine its reported Inhibitory Ratio at 25 μM (%): O=C1C(=Cc2cc(Cl)ccc2O)SC(=S)N1c1ccccc1 [compound 65]
21

====

Overview of recorded Inhibitory Ratio at 25 μM (%) for various compounds
biological target: recombinant human PAI-1 (Homo sapiens); assay: PAI-1 inhibitory activity, Test Method A (tPA fluorogenic substrate, Tris buffer pH8.0, 37 C); type: biochemical; settings: test compound 25 μM; Test Method A

Below: 4 compounds and their reported Inhibitory Ratio at 25 μM (%).
SMILES_STR: Nc1cc(C=C2SC(=O)N(Cc3ccc(Cl)c(Cl)c3)C2=O)ccc1O
TEST_TARGET: recombinant human PAI-1 (Homo sapiens)
Inhibitory Ratio at 25 μM (%): 21%
//
SMILES_STR: CC(C)C1=NN(c2cc(Cl)cc(Cl)c2)C(=O)C1=Cc1ccc(O)c(O)c1O
TEST_TARGET: recombinant human PAI-1 (Homo sapiens)
Inhibitory Ratio at 25 μM (%): >99%
//
SMILES_STR: CC1=NN(c2ccc(Cl)c(Cl)c2)C(=O)C1=Cc1cc(O)c(O)c(O)c1
TEST_TARGET: recombinant human PAI-1 (Homo sapiens)
Inhibitory Ratio at 25 μM (%): 53%
//
SMILES_STR: CC(C)C1=NN(c2cc(C(F)(F)F)cc(C(F)(F)F)c2)C(=O)C1=Cc1ccc(O)c(O)c1
TEST_TARGET: recombinant human PAI-1 (Homo sapiens)
Inhibitory Ratio at 25 μM (%): >99%

// next item, Inhibitory Ratio at 25 μM (%) requested
Determine its reported Inhibitory Ratio at 25 μM (%): O=C1SC(=Cc2cccc(O)c2O)C(=O)N1Cc1ccc(-c2ccccc2)cc1
>99%

====

biological target: recombinant human PAI-1 (Homo sapiens, UniProt P05121); assay: PAI-1 inhibitory activity, Test Method A (tPA fluorogenic substrate, Tris buffer pH8.0, 37 C); details: 50% inhibitory concentration of PAI-1 activity, according to the aforementioned method
MEASUREMENT_NAME: IC50

SMILES_STR: CC(C)C1=NN(c2cc(Cl)cc(Cl)c2)C(=O)C1=Cc1cc(O)c(O)cc1O
MEASUREMENT_NAME: IC50
MEASUREMENT: 290 nM
//
SMILES_STR: O=C(Nc1cc(Cl)ccc1Cl)c1cc(C=C2SC(=O)N(Cc3ccc(Cl)c(Cl)c3)C2=O)ccc1O
MEASUREMENT_NAME: IC50
MEASUREMENT: 480 nM
//
SMILES_STR: CC(C)C1=NN(c2ccc(Cl)c(Cl)c2)C(=O)C1=Cc1cc(O)c(O)cc1O
MEASUREMENT_NAME: IC50
MEASUREMENT: 240 nM

// next item, IC50 requested
Determine its reported IC50: O=C1SC(=Cc2cccc(O)c2O)C(=O)N1Cc1ccc(Cl)cc1Cl
440 nM

====

Overview of recorded Inhibitory Ratio at 25 μM (%) for various molecules
target: recombinant human PAI-1 (Homo sapiens); assay: PAI-1 inhibitory activity, Test Method A (tPA fluorogenic substrate, Tris buffer pH8.0, 37 C); type: biochemical; settings: 25 μM test compound; Test Method A

SMILES_STR: CCOC1=NN(c2ccc([N+](=O)[O-])cc2)C(=O)C1=Cc1cc(Br)ccc1O
Inhibitory Ratio at 25 μM (%): 72%

Give the observed Inhibitory Ratio at 25 μM (%) of O=C1SC(=Cc2cc([O-])c([O-])c(O)c2)C(=O)N1Cc1ccc(Cl)c(Cl)c1.[Na+].[Na+] for recombinant human PAI-1 (Homo sapiens).
85%

Give the observed Inhibitory Ratio at 25 μM (%) of COc1cc(Br)cc(C=C2C(=O)N(c3cc(Cl)cc(Cl)c3)N=C2C(C)C)c1O for recombinant human PAI-1 (Homo sapiens).
>99%

Give the observed Inhibitory Ratio at 25 μM (%) of O=C1SC(=Cc2ccc(Oc3ccccc3)cc2)C(=O)N1Cc1cc(O)c(O)c(O)c1 for recombinant human PAI-1 (Homo sapiens).
98%

Give the observed Inhibitory Ratio at 25 μM (%) of COc1ccc(C=Cc2ccccc2)cc1C=C1C(=O)N(c2ccc([N+](=O)[O-])cc2)N=C1C(C)C for recombinant human PAI-1 (Homo sapiens).
78%

Give the observed Inhibitory Ratio at 25 μM (%) of CCOC1=NN(c2ccc([N+](=O)[O-])cc2)C(=O)C1=Cc1cc(C=Cc2ccccc2)ccc1O[Si](C)(C)C(C)(C)C for recombinant human PAI-1 (Homo sapiens).
>99%

Give the observed Inhibitory Ratio at 25 μM (%) of COc1ccc(NC(=O)c2cc(C=C3SC(=O)N(Cc4cc(C)cc(C)c4)C3=O)ccc2O)cc1OC for recombinant human PAI-1 (Homo sapiens).
>99%
